# Test system: c-Abl (mouse)
# experiment-summary: phosphorylation enrichment, bacterial display (enrichment ratio); higher = better substrate or ligand; peptides without Tyr show the background;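 note: 11-residue human phosphosite peptides and single-mutation variants displayed on the E. coli surface, counted by deep sequencing, each peptide's frequency after selection divided by its frequency in the unselected input library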;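 note: frequency after pTyr selection over input frequency; kinase dosed for 20-30% of maximal phosphorylation in three min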
reported-endpoint: phosphorylation enrichment
Numbers only.

{"record-sequence": "TKVVHYRKWIK [KLK2_Y249]", "observed-result": 0.462}
{"record-sequence": "QLATEYVFSDF [PANX1_Y10]", "observed-result": 0.907}
{"record-sequence": "NSNAAYEESHF [LRIF1_Y714_Q716E]", "observed-result": 0.659}
{"record-sequence": "FLEKFYKFGSR [NNMT_Y25_YF]", "observed-result": 0.551}
{"record-sequence": "DTFDPYLDVAL [USP36_Y268_YF]", "observed-result": 0.833}

Take each entry in turn and give its phosphorylation enrichment.
1. NPQKSYFILLY [WAS_Y83_R86L]
2. KFLENYLNCLL [PLD2_Y169_R172C_YF]
3. PDMHSYVVRFN [GRIN2D_Y732_M733V_YF]
4. RLAKRYLIWEC [SCN5A_Y694_Q692K]
5. PSDPSYEDTRE [BMPR1A_Y467_M470T]
6. AFSLKYEQQTQ [SYTL4_Y366]
7. FPIDHYLGKEM [G6PD_Y202_R198P_YF]

[0.719, 0.91, 0.873, 0.771, 1.71, 0.564, 0.524]

Batch request: phosphorylation enrichment per item, same order as input.
1. RSPLRYISILT [OR51B6_Y130_T131I]
2. DRLASYLDKVR [KRT10_Y160]
3. MANYVYKAGPS [MAML2_Y515_M514V]
4. EMFNPYFGLFE [NEDD4L_Y679_YF]
5. EDEGLYMVRVP [MYOM3_Y343]
6. NGSFLYVIISQ [LRP1B_Y1988_R1987L]
7. TESNNYIYKTL [FAM83B_Y637]

[0.419, 0.519, 0.815, 1.14, 0.812, 0.931, 0.559]

Batch lookup, phosphorylation enrichment per entry.
1. ILNANCMAKRL [GLDC_Y839_Y839C]
2. ANNPLYKEATS [ITGB3_Y773]
3. GPGLVYGVANK [FLNB_Y1833]

0.498
0.635
0.545

---

# measurement-target: Hck (UniProt P08631)
# Sequence (P08631 whole entry, looked up): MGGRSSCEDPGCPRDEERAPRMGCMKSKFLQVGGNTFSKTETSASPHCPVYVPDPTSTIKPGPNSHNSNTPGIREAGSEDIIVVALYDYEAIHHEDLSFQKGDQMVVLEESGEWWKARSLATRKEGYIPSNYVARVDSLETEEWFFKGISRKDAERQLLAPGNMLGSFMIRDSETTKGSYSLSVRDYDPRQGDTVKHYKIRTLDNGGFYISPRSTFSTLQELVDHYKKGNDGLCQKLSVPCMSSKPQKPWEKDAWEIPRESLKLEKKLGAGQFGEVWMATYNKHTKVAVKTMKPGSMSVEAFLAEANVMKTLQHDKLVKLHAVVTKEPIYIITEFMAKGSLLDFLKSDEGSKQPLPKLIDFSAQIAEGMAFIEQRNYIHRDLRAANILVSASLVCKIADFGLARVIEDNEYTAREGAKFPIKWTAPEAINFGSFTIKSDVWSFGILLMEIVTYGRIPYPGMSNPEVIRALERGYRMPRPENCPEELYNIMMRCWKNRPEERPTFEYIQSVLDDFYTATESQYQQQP
# experiment-summary: phosphorylation enrichment, bacterial display (enrichment ratio); higher = better substrate or ligand; peptides without Tyr show the background
Would you please tag the item y when its phosphorylation enrichment is 0.5 or above, and n when it is below?

These solved cases illustrate the format of a correct answer.
{"record-sequence": "LGGSPYPRVPV [FGFR1_Y701_G703R]", "category-label": "n"}
{"record-sequence": "SEEVTYATLTF [CLEC12B_Y7]", "category-label": "y"}
{"record-sequence": "FKGIVYSVSSD [DCX_Y70_A71S]", "category-label": "y"}
{"record-sequence": "QAIDEYEKWLE [MAP9_Y603_N601D]", "category-label": "y"}
{"record-sequence": "LFCVHYFHRTF [SRD5A2_Y91]", "category-label": "y"}

Form field: phosphorylation enrichment at least 0.5? Entry: RDHYGYRQSVT [CD55_Y245]
y

Now consider HSKGIYFVQLE [MGAT4B_Y262_Q257H_YF] and answer again.
y

Another sequence: RSHLSYDVTPE [IQGAP3_Y1098_P1097S]
n
